Consider the following molecules and their measured activation readings.
Method Notes: qHTS assay for small molecule activators of the p53 signaling pathway (AID 651743); further: series mostly up to about 92 µM; % of control where 0% means no effect
Assay Conditions: HCT-116 p53RE-bla, beta-lactamase FRET ratio, 16 h; active compounds read high
Records with an inconclusive call do not appear.
Measured Metric: activation (%)

[
  {
    "Molecule": "O=[N+]([O-])c1ccccc1O",
    "Measured Metric": "activation",
    "Unit Tag": "%",
    "Reported Result": -2.01
  },
  {
    "Molecule": "c1ccc(OCC2CO2)cc1 (stereo unspecified)",
    "Measured Metric": "activation",
    "Unit Tag": "%",
    "Reported Result": -2.65
  },
  {
    "Molecule": "Nc1c(Br)cc([N+](=O)[O-])cc1[N+](=O)[O-]",
    "Measured Metric": "activation",
    "Unit Tag": "%",
    "Reported Result": -4.7
  },
  {
    "Molecule": "CCC[N+](=O)[O-]",
    "Measured Metric": "activation",
    "Unit Tag": "%",
    "Reported Result": -0.809
  },
  {
    "Molecule": "CC(C#N)CCC#N (stereo unspecified)",
    "Measured Metric": "activation",
    "Unit Tag": "%",
    "Reported Result": -0.507
  },
  {
    "Molecule": "Cc1cc(C)cc(OP(=O)(Oc2cc(C)cc(C)c2)Oc2cc(C)cc(C)c2)c1",
    "Measured Metric": "activation",
    "Unit Tag": "%",
    "Reported Result": -0.0195
  },
  {
    "Molecule": "C=CCCl",
    "Measured Metric": "activation",
    "Unit Tag": "%",
    "Reported Result": -1.58
  },
  {
    "Molecule": "Cc1cccc(C)c1N",
    "Measured Metric": "activation",
    "Unit Tag": "%",
    "Reported Result": 1.32
  },
  {
    "Molecule": "Nc1cccc(Cl)c1",
    "Measured Metric": "activation",
    "Unit Tag": "%",
    "Reported Result": -1.95
  },
  {
    "Molecule": "ClCC(Br)CBr (stereo unspecified)",
    "Measured Metric": "activation",
    "Unit Tag": "%",
    "Reported Result": -3.3
  },
  {
    "Molecule": "ClCCOCCCl",
    "Measured Metric": "activation",
    "Unit Tag": "%",
    "Reported Result": -1.88
  }
]

###

Method Notes: qHTS assay for small molecule agonists of the antioxidant response element (ARE) signaling pathway measured by Nrf2-dependant transcriptional activity - cell viability counter screen (AID 720653); further: on the % scale 0 is the no-effect control and ±100 the full control effect
Assay Conditions: ARE-bla HepG2 viability, CellTiter-Glo ATP luminescence, 16 h; active compounds read low
Records with an inconclusive call do not appear.

[
  {
    "Compound": "CC(=O)NNc1ccccc1",
    "max response [%]": 1.56
  },
  {
    "Compound": "CC(C)(Cl)Cl",
    "max response [%]": -1.91
  },
  {
    "Compound": "Nc1ccc(Cl)c(Cl)c1",
    "max response [%]": -17.9
  },
  {
    "Compound": "FC(Cl)(Cl)Cl",
    "max response [%]": -4.09
  },
  {
    "Compound": "C=CC(=O)OCC(C)C",
    "max response [%]": -10.1
  },
  {
    "Compound": "Nc1cc(Cl)ccc1O",
    "max response [%]": -22.1
  },
  {
    "Compound": "O=C(O)c1cccc(Cl)c1",
    "max response [%]": -8.47
  },
  {
    "Compound": "Oc1cc(Cl)cc(Cl)c1",
    "max response [%]": -11.3
  },
  {
    "Compound": "C=CC=O",
    "max response [%]": 9.03
  },
  {
    "Compound": "OCCOCCO",
    "max response [%]": -0.406
  },
  {
    "Compound": "CCCCCC[N+](=O)[O-]",
    "max response [%]": 8
  },
  {
    "Compound": "CC(C)[N+](=O)[O-]",
    "max response [%]": 1.53
  },
  {
    "Compound": "Nc1ccccc1-c1ccccc1",
    "max response [%]": -2.88
  },
  {
    "Compound": "Cl/C=C\\Cl",
    "max response [%]": -3.68
  },
  {
    "Compound": "NNC(N)=S",
    "max response [%]": 16.5
  },
  {
    "Compound": "COc1c(C(C)(C)C)cc([N+](=O)[O-])c(C)c1[N+](=O)[O-]",
    "max response [%]": 4.77
  },
  {
    "Compound": "Nc1cccc2ccccc12",
    "max response [%]": -19.6
  },
  {
    "Compound": "CC(C)OS(C)(=O)=O",
    "max response [%]": -6.13
  },
  {
    "Compound": "C=C(C)CCl",
    "max response [%]": -2.48
  },
  {
    "Compound": "N#CCBr",
    "max response [%]": -10.6
  },
  {
    "Compound": "CCCCCCCCCCCCCl",
    "max response [%]": -2.45
  },
  {
    "Compound": "CC(C)(COCC1CO1)COCC1CO1 (centres undefined)",
    "max response [%]": 1.11
  },
  {
    "Compound": "Cl/C=C/Cl",
    "max response [%]": 1.77
  },
  {
    "Compound": "CC[N+](=O)[O-]",
    "max response [%]": 9.27
  },
  {
    "Compound": "Brc1cccc(-c2ccccc2)c1",
    "max response [%]": -6.68
  },
  {
    "Compound": "CCC(Cl)[N+](=O)[O-] (centres undefined)",
    "max response [%]": -4.85
  },
  {
    "Compound": "N#CC(Br)Br",
    "max response [%]": -8.42
  },
  {
    "Compound": "Cc1cccc(C)c1N",
    "max response [%]": 4.9
  },
  {
    "Compound": "C=CCCl",
    "max response [%]": -2.66
  },
  {
    "Compound": "BrCC(Br)C1CCC(Br)C(Br)C1 (centres undefined)",
    "max response [%]": -1.58
  },
  {
    "Compound": "O=[N+]([O-])c1ccc(O)c([N+](=O)[O-])c1",
    "max response [%]": -10
  },
  {
    "Compound": "CN=C=O",
    "max response [%]": -4.34
  },
  {
    "Compound": "N#C/C=C/C#N",
    "max response [%]": -28.1
  },
  {
    "Compound": "CCN(CC)N=O",
    "max response [%]": 2.46
  },
  {
    "Compound": "ClC(Cl)Br",
    "max response [%]": 9.16
  },
  {
    "Compound": "C=CC#N",
    "max response [%]": 7.55
  },
  {
    "Compound": "OCCCCO",
    "max response [%]": -2.13
  },
  {
    "Compound": "Nc1ncc([N+](=O)[O-])s1",
    "max response [%]": 0.285
  },
  {
    "Compound": "Cc1ccc(N)cc1C",
    "max response [%]": -7.17
  }
]
